- Target System: Cytochrome P450 3A4 (Homo sapiens, UniProt P08684);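 further: confirmatory qHTS run detecting inhibitors and substrates of CYP3A4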
- Sequence (P08684 whole entry): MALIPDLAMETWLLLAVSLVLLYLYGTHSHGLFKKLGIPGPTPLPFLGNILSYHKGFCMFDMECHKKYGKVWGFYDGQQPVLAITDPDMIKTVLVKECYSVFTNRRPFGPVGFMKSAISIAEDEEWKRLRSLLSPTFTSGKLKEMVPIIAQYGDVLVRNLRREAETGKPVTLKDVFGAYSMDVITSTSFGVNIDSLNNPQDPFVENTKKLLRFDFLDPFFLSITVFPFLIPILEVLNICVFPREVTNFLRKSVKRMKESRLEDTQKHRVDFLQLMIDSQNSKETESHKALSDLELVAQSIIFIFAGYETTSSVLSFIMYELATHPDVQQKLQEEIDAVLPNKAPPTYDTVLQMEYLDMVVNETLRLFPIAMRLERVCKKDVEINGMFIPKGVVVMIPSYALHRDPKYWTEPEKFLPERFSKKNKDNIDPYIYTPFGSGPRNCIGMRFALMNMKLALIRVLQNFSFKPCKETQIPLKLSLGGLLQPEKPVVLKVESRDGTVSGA
- Condition Summary: Potency
Metric Name: AC50

-- ask Look up AC50 of Oc1ccc2c(c1)OCO2 and report it.
-- reply 15.8 µM (inconclusive)

-- ask Look up AC50 of CCOC(=O)C(Cc1ccc(O)cc1)NC(C)=O (configuration not stated) and report it.
-- reply 25.1 µM (inconclusive)

-- ask Look up AC50 of COc1c2c(c(CC=C(C)C)c3oc(=O)c(-c4ccc(O)cc4)c(O)c13)OC(C)(C)C=C2 and report it.
-- reply 12.6 µM (inconclusive)

-- ask Look up AC50 of CC(C)(C)CC(C)(C)c1ccc(OCCO)cc1 and report it.
-- reply 31.6 µM (inconclusive)

-- ask Look up AC50 of COCCNC(=O)C1(CC(C)C)C=CCN1C(=O)c1ccccc1 (configuration not stated) and report it.
-- reply 20 µM (inconclusive)

-- ask Look up AC50 of CC1(C)CCC[C@@]2(C)[C@@H]1CC[C@]1(C)OC(=O)C[C@@H]21 and report it.
-- reply 20 µM (inconclusive)

-- ask Look up AC50 of CCCn1c(C)nc2c(N(CCOC)CCOC)nc(C)nc21 and report it.
-- reply 15.8 µM (inconclusive)

---

- Target System: Corticotropin-releasing factor receptor 2/Corticotropin-releasing factor-binding protein (Homo sapiens, UniProt P24387+Q13324)
- Sequence (Q13324 whole entry): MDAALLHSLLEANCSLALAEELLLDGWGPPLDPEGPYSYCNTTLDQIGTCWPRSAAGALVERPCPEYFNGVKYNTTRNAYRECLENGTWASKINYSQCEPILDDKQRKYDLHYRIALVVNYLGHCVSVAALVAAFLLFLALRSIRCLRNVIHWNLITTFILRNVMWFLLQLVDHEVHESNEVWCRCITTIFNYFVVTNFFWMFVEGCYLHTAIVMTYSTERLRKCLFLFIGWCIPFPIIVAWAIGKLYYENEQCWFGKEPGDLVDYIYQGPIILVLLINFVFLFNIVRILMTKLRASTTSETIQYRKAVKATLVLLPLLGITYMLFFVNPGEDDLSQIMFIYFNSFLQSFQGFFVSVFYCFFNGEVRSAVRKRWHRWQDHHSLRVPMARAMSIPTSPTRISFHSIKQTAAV
- Sequence (P24387 whole entry): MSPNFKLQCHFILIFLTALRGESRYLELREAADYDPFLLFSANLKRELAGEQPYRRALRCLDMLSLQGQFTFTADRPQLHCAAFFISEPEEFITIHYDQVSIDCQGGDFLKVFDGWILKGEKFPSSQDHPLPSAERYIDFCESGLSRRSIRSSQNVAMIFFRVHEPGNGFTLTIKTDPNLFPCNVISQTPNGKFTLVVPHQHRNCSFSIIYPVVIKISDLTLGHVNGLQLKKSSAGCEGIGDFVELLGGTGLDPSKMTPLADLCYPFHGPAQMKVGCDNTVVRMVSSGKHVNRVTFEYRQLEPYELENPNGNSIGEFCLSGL
- Protocol Notes: activators of CRF receptor 2 with binding protein – uHTS hits, confirmation (AID 602473)
- Format: functional
- Condition Summary: read-out: EC50_Mean
The source made the active and inactive calls.
// classify into active, inactive

-- ask What is the recorded call for this compound in the test? CC(C)NS(=O)(=O)c1ccc(NC(=O)C(C)Oc2ccc(C(=O)c3ccccc3)cc2)cc1 (centres undefined)
-- reply active

-- ask What is the recorded call for this compound in the test? Nc1c(C(=O)N2CCOCC2)sc2nc3c(cc12)CCC3
-- reply inactive

-- ask What is the recorded call for this compound in the test? CCN1/C(=C\C=C\C2=[N+](CC)c3ccccc3C2(C)C)C(C)(C)c2ccccc21.[O-][Cl+3]([O-])([O-])[O-]
-- reply active

-- ask What is the recorded call for this compound in the test? CCCCON1C(=O)c2cccc3cccc(c23)C1=O
-- reply inactive

-- ask What is the recorded call for this compound in the test? O=C(NC1CCCCC1)NS(=O)(=O)c1ccc2c(c1)CCC2 [GLYHEXAMIDE]
-- reply inactive

-- ask What is the recorded call for this compound in the test? Cc1cc(S(=O)(=O)Nc2ccc(C(=O)NCC(C)(C)N3CCOCC3)cc2)ccc1F
-- reply inactive

-- ask What is the recorded call for this compound in the test? CC(=O)/N=c1/sc(S(N)(=O)=O)nn1C [METHAZOLAMIDE]
-- reply inactive

-- ask What is the recorded call for this compound in the test? CSC1=NCCN1C(=O)Cc1ccc(Cl)cc1
-- reply inactive

-- ask What is the recorded call for this compound in the test? COC(=O)CSC1=NS(=O)(=O)c2ccccc21
-- reply inactive

---

Exercise: for every item that follows, state its recorded IC50.
- Target System: UniProt Q8IL11
- Sequence (Q8IL11 whole entry): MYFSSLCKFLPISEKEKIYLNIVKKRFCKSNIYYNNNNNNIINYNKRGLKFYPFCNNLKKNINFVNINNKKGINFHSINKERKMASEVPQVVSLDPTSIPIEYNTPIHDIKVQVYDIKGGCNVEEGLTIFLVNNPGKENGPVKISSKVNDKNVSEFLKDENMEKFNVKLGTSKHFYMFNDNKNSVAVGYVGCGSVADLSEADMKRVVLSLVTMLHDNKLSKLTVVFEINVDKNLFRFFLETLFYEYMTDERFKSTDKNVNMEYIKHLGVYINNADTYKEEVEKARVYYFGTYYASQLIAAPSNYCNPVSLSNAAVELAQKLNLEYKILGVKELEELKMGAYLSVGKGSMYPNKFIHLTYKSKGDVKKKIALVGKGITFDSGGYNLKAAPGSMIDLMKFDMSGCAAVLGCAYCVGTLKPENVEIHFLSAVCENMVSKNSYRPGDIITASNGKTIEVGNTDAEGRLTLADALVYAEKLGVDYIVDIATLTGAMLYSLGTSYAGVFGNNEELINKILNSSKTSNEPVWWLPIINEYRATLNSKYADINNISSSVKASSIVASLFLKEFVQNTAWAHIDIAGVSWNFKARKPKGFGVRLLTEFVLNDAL
- Protocol Notes: P. falciparum M17LAP inhibitors, primary screen, biochemical, fluorogenic H-Leu-NHMec substrate, 1536-well (AID 1619)
- Format: functional
Active and inactive are the calls of the source.

-- ask Look up IC50 of CCOC(=O)c1c(NC(=O)CSc2nnc(C)c(=O)[nH]2)sc2c1CCC2 and report it.
-- reply 7.77 µM (active)

-- ask Look up IC50 of O=C(NCc1ccccc1)c1ccc2c(=O)[nH]c3c(C(=O)NCC4CCCO4)sc(=S)n3c2c1 (centres undefined) and report it.
-- reply 8.61 µM (active)

-- ask Look up IC50 of CCc1ccc(-c2cc(C(=O)Nc3ccc(S(=O)(=O)NC(C)=O)cc3)c3ccccc3n2)cc1 and report it.
-- reply 7.8 µM (active)

-- ask Look up IC50 of CC(=O)NS(=O)(=O)c1ccc(NC(=O)c2cc(-c3ccc(C)cc3)nc3ccccc23)cc1 and report it.
-- reply 13.7 µM (active)

---

Exercise: for every item that follows, state its recorded EC50.
- Protocol Notes: cytotoxicity toward NIH3T3 fibroblasts, dose response, counter-screen, cell-based, ATP luminescence, mouse fibroblasts (AID 2010);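 further: cells exposed to compound for about 90 hours before reading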
- Format: functional
The source made the active and inactive calls.

-- ask Look up EC50 of COc1ccccc1CNc1ccc2c(c1)CCC2 and report it.
-- reply > 60 µM (not active)

-- ask Look up EC50 of Cc1ccc(Sc2ccc(CN3CCCC3)cc2[N+](=O)[O-])cc1 and report it.
-- reply > 60 µM (not active)

-- ask Look up EC50 of O=C(Nc1cccc(Cl)c1)Nc1csc([N+](=O)[O-])c1 and report it.
-- reply > 60 µM (not active)

-- ask Look up EC50 of Cc1ccc(NC(=O)C(Cc2ccccc2)N2C(=O)C3C4CCC(C4)C3C2=O)cc1Cl (configuration not stated) and report it.
-- reply > 60 µM (not active)

-- ask Look up EC50 of COc1ccc2sc(N(CCCN(C)C)C(=O)c3ccc(S(=O)(=O)N(C)Cc4ccccc4)cc3)nc2c1 and report it.
-- reply > 60 µM (not active)

-- ask Look up EC50 of CCOc1ccc(-n2c(C)cc(/C=N/N(C)C)c2C)cc1 and report it.
-- reply > 30 µM (not active)

-- ask Look up EC50 of Cc1cccc(C2c3[nH]c4ccccc4c3CCN2Cc2cccn2-c2ncccn2)c1 (configuration not stated) and report it.
-- reply 20.7 µM (active)

-- ask Look up EC50 of CCc1ccc2nc(N(CCCN(C)C)C(=O)c3ccc(S(=O)(=O)N4CCCc5ccccc54)cc3)sc2c1 and report it.
-- reply 9.15 µM (active)

-- ask Look up EC50 of O=C(NCCc1ccncc1)Nc1ccc(Cl)c(Cl)c1 and report it.
-- reply > 60 µM (not active)

-- ask Look up EC50 of Cc1ccc2nc(Cl)c3cc(C(=O)N(CCN(C)C)Cc4ccco4)sc3c2c1 and report it.
-- reply > 60 µM (not active)

-- ask Look up EC50 of Cc1ccc(NC2CCCN(C(=O)CCc3ccncc3)C2)cc1C (configuration not stated) and report it.
-- reply > 60 µM (not active)

-- ask Look up EC50 of CC(C)=CCc1cc2c(=O)c3c(O)c4c(cc3oc2c(O)c1O)OC(C)C4(C)C (configuration not stated) [GERONTOXANTHONE G] and report it.
-- reply 6.31 µM (active)

---

- Target System: UniProt P38532
- Sequence (P38532 whole entry): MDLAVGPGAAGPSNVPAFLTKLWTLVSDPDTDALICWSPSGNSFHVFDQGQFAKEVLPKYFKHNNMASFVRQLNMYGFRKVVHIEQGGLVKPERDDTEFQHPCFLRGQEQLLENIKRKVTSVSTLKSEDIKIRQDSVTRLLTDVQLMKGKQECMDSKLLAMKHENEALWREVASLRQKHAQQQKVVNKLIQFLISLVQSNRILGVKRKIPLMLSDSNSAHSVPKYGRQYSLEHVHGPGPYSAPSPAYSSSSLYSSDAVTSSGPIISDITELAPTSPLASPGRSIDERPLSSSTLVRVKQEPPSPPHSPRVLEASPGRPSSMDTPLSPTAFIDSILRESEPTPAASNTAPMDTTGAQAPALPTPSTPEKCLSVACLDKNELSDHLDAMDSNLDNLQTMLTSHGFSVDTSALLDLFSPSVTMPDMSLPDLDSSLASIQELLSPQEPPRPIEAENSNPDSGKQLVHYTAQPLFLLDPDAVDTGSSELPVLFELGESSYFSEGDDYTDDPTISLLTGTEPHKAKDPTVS
- Protocol Notes: HSF1 potentiators in luciferase reporter cells, confirmation, cell-based, NIH3T3, luminescence, dose retest (AID 435004);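 further: stress induced by proteasome inhibitor MG132 added 30 min after compound; luciferase reporter driven by HSF1 response element in NIH3T3 cells; actives raise luminescence as potentiators of the MG132 stress response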
- Assay type: functional
The source made the active and inactive calls.
Exercise: for every item that follows, state its recorded EC50.

-- ask Look up EC50 of Cc1nc2ccc(Br)cc2c(=O)n1Cc1cccs1 and report it.
-- reply > 260 µM (inactive)

-- ask Look up EC50 of Cc1cccc(N=C(S)N(CCN(C)C)C(C)c2cccnc2)c1 (stereo unspecified) and report it.
-- reply > 260 µM (inactive)

-- ask Look up EC50 of C=CCn1c(SCC(=O)NC2CCCC2)nc2scc(-c3ccco3)c2c1=O and report it.
-- reply > 260 µM (inactive)

-- ask Look up EC50 of O=c1c(-c2ccc3c(c2)OCCO3)coc2cc(O)cc(O)c12 and report it.
-- reply 19.2 µM (active)

-- ask Look up EC50 of CCOc1cc(/C=C2/C(=O)ON=C2C)ccc1OCc1ccc(F)cc1 and report it.
-- reply 8.12 µM (active)

-- ask Look up EC50 of COc1ccc(/C=C/C(=O)NCCCc2ccccc2)cc1 and report it.
-- reply > 260 µM (inactive)

-- ask Look up EC50 of Cc1cc(Cl)ccc1C(=O)C1CCCN(C(=O)c2cnsn2)C1 (stereo unspecified) and report it.
-- reply > 260 µM (inactive)

-- ask Look up EC50 of Cc1cc(N(C)C)c(C#N)c(NCc2ccccc2)n1 and report it.
-- reply > 260 µM (inactive)

-- ask Look up EC50 of O=C(CCN1CCc2ccccc2C(c2ccccc2)C1)c1ccc2c(c1)OCCO2 (stereo unspecified) and report it.
-- reply > 260 µM (inactive)

-- ask Look up EC50 of CO/C(O)=C1\C(C)=NC(=S)NC1c1ccc(-c2cccc(Cl)c2)o1 (stereo unspecified) and report it.
-- reply > 260 µM (inactive)

-- ask Look up EC50 of COc1ccc(N2C(=O)CSC2c2ccncc2)cc1 (stereo unspecified) and report it.
-- reply > 260 µM (inactive)
